assayedSystem: hTRPA1 (Homo sapiens, UniProt O75762)
Sequence (O75762 whole entry): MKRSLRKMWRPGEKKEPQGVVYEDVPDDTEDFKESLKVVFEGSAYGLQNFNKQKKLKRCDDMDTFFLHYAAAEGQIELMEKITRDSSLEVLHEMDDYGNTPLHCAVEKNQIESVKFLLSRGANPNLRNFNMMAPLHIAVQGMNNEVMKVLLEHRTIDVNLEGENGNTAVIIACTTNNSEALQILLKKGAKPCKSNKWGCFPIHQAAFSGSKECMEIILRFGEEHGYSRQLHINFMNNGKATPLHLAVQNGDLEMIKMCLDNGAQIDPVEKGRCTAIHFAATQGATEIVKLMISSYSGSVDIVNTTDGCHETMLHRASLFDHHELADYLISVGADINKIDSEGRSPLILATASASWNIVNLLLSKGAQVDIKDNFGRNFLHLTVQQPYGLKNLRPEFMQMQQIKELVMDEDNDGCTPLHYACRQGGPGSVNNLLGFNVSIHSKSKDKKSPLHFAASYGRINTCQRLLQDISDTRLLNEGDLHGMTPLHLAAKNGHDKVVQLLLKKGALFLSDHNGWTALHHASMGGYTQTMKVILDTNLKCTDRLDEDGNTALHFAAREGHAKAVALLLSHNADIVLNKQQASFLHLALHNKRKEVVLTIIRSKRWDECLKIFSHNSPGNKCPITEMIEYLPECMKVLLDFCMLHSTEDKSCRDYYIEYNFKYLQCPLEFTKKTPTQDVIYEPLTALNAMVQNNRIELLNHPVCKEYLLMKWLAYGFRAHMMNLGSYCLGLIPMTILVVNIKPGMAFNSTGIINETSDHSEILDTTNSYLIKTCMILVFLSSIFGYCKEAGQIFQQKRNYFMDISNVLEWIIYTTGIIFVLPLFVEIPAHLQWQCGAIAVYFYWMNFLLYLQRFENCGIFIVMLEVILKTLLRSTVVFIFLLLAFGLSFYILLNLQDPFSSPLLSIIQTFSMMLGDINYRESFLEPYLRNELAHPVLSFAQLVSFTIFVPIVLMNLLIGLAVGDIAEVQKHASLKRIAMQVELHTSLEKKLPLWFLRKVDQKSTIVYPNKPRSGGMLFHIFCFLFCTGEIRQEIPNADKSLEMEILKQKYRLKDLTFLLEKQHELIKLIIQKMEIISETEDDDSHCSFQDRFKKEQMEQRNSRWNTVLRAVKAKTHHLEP
testProtocol: IC50 determination, dose response calcium flux (FLIPR) assay, ChanTest hTRPA1-CHO stably transfected cell line
testParameters: CHO-K1 Tet-On hTRPA1 cells, 30' preincubation, agonist cinnamaldehyde final 100 uM
Where a name gives a salt, the structure may show the parent alone.
Doc: threshold 1 µM (exclusive). Items with IC50 beneath it return MET; others return NOT MET.

// known answers, use as guide
compound: CS(=O)(=O)c1cccc(C2CCCN(C[C@H](OC(=O)Nc3ccc(Cl)cc3)C(F)(F)F)C2)c1 (stereo partly shown) [Example 62, hydrochloride]
className: NOT MET

compound: O=C(Nc1ccc(Cl)cc1)O[C@@H](CN1CCC[C@H](Oc2ccncc2)C1)C(F)(F)F (racemic) [Example 22b]
className: NOT MET

compound: O=C(Nc1ccc(Cl)cc1)O[C@@H](CN1CCC[C@H](c2cc(C(F)(F)F)cc(C(F)(F)F)c2)C1)C(F)(F)F [Example 23]
className: MET

compound: O=C(Nc1ccc(Cl)cc1)O[C@@H](CN1CCC[C@H](Cc2ccccc2)C1)C(F)(F)F (single isomer, unassigned) [Example 11]
className: MET

compound: O=C(Nc1ccc(Cl)cc1)OC(CN1CCCC(c2ccccc2)CC1)C(F)(F)F (stereo not shown) [Example 27]
className: NOT MET

compound: O=C(Nc1ccc(Cl)cc1)O[C@@H](CN1CCCC(Oc2ccc(F)cc2)C1)C(F)(F)F (stereo partly shown) [Example 48, hydrochloride]
className: MET

Proceed to the following item.
Input: For N#Cc1cccc(OC2CCCN(C[C@H](OC(=O)Nc3ccc(Cl)cc3)C(F)(F)F)C2)c1 (stereo partly shown) [Example 47, hydrochloride] , is the recorded IC50 below the cut-off of 1 µM?
Output: MET

Attribution: patent US20150218141A1
